Biological target: T1, PDZD7-3, third PDZ domain of PDZD7 (human, UniProt Q9H5P4 862-934)
T1 construct: PDZD7, human, PDZ domain 3; not shown: His6, N-terminal, kept; MBP, N-terminal, kept
T1 sequence (looked up): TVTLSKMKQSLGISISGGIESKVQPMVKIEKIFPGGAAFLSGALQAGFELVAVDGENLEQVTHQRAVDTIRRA
Experiment: fluorescence polarisation; direct: N-terminally fluorescein-labelled PBM peptide (tracer) with increasing amounts of MBP-PDZ; 384-well plates; triplicate; direct binding model (ProFit)
Details: both partners purified
pKd: −log10 of the molar value. Where no end group is shown, it is not given here.
Property name: pKd

[[record]]
binder = "fluorescein-KLPSTTL (source: synthetic peptide) [fRSK1, fluorescein-labelled RSK1 PBM peptide]"
reported_result = 5.80

